These measurements were taken from patent US8362022B2.

In this section we review reported Intrinsic Activity efficacy Alpha 1A values for a set of compounds.
assay-target: UniProt P35348
Sequence (P35348 1-466): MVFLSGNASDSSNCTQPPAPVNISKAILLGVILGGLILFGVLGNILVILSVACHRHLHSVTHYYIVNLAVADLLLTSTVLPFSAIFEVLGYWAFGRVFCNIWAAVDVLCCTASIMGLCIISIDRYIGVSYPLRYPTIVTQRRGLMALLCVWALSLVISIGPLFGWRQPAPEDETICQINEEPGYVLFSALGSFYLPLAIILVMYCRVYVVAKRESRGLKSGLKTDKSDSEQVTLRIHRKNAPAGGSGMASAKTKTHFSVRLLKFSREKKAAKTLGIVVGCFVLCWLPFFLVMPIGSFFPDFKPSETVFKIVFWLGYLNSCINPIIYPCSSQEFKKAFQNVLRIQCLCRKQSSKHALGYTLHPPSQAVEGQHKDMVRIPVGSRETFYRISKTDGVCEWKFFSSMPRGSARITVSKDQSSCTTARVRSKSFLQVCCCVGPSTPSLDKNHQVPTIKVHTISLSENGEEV
protocol-notes: RSAT assay (Receptor Selection and Amplification Technology), Alpha 1A
Assay type: cell-based
condition-parameters: value in parentheses, ratio of maximal effect of drug to maximal effect of standard full agonist
measured-parameter: Intrinsic Activity efficacy Alpha 1A

> print(dat)
                                   compound  value.measured
1  COc1ccccc1C(Cc1ccncc1)N=C1NCCN1 (stereo not shown)             1.0
2  Fc1cccc(C(Cc2ccncc2)N=C2NCCN2)c1 (stereo not shown)            0.97
3  COc1ccccc1C(Cc1cccnc1)/N=C1/NCCS1 (stereo not shown)             1.6
4  Clc1cccc(C(Cc2ccncc2)/N=C2/NCCS2)c1Cl (stereo not shown)             1.0

###

assay-target: alpha 2B receptor (Homo sapiens)
Construct: expressed in transfected cells; host or cells: NIH-3T3
Sequence (P18089 whole entry): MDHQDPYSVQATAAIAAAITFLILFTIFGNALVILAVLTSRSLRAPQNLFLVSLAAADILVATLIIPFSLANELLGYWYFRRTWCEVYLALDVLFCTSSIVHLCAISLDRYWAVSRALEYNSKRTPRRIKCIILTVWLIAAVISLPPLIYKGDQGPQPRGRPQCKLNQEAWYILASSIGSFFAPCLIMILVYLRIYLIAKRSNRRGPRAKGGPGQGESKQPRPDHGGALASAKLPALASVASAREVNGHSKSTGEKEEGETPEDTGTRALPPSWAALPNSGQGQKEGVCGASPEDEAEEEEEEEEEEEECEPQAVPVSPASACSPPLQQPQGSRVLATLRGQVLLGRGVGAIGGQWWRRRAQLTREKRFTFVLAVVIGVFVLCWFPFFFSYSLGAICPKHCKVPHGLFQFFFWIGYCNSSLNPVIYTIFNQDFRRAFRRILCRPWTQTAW
protocol-notes: RSAT assay (Receptor Selection and Amplification Technology), Alpha 2B
Format: cell-based
condition-parameters: RSAT; Table 2; read-out: Potency nM (EC50) Alpha 2B
In this section we review reported log10(EC50) values for a set of compounds.
measured-parameter: log10(EC50) (log10 of the value in nM)

> print(dat)
                                    compound                      assay.target  measured.parameter  value.measured
 1  c1ccc(C(Cc2cccnc2)NC2=NCCN2)cc1 (stereo not drawn)  alpha 2B receptor (Homo sapiens)         log10(EC50)            1.20
 2  Cc1c(Cl)cncc1CC(NC1=NCCO1)c1cccc(Cl)c1 (stereo not drawn)  alpha 2B receptor (Homo sapiens)         log10(EC50)            0.75
 3  Cc1cncc(CC(NC2=NCCO2)c2cccc(C)c2)c1 (stereo not drawn)  alpha 2B receptor (Homo sapiens)         log10(EC50)            0.48
 4  Cc1cccc(C(Cc2cncc(Br)c2C)NC2=NCCO2)c1 (stereo not drawn)  alpha 2B receptor (Homo sapiens)         log10(EC50)            0.43
 5  Clc1cccc(C(Cc2cccnc2)NC2=NCCO2)c1Cl (stereo not drawn)  alpha 2B receptor (Homo sapiens)         log10(EC50)            0.75
 6  Clc1ncccc1CC(NC1=NCCO1)c1cccc(Br)c1 (stereo not drawn)  alpha 2B receptor (Homo sapiens)         log10(EC50)           -0.85
 7  Clc1cccc(C(Cc2cccnc2Br)NC2=NCCO2)c1 (stereo not drawn)  alpha 2B receptor (Homo sapiens)         log10(EC50)            0.11
 8  Cc1cncc(CC(NC2=NCCO2)c2cccc(Cl)c2)c1C (stereo not drawn)  alpha 2B receptor (Homo sapiens)         log10(EC50)            0.93
 9  Cc1cccc(C(Cc2cccnc2)NC2=NCCO2)c1 (stereo not drawn)  alpha 2B receptor (Homo sapiens)         log10(EC50)            0.91
10  Cc1cccc(C(Cc2ccccn2)NC2=NCCO2)c1C (stereo not drawn)  alpha 2B receptor (Homo sapiens)         log10(EC50)            0.83
11  Fc1cccc(C(Cc2cccnc2Cl)NC2=NCCO2)c1 (stereo not drawn)  alpha 2B receptor (Homo sapiens)         log10(EC50)           -1.05
12  Cc1cncc(CC(NC2=NCCO2)c2cccc(Cl)c2)c1 (stereo not drawn)  alpha 2B receptor (Homo sapiens)         log10(EC50)            0.60
13  Cc1c(Br)cncc1CC(NC1=NCCO1)c1cccc(Cl)c1 (stereo not drawn)  alpha 2B receptor (Homo sapiens)         log10(EC50)            0.28
14  Cc1cccc(C(Cc2cncc(C)c2C)NC2=NCCO2)c1 (stereo not drawn)  alpha 2B receptor (Homo sapiens)         log10(EC50)            0.59
15  Clc1cccc(C(Cc2cccnc2Cl)NC2=NCCO2)c1 (stereo not drawn)  alpha 2B receptor (Homo sapiens)         log10(EC50)           -0.32
16  COc1cccc(C(Cc2cccnc2)NC2=NCCO2)c1 (stereo not drawn)  alpha 2B receptor (Homo sapiens)         log10(EC50)            1.75
17  Fc1ncccc1CC(NC1=NCCO1)c1cccc(Cl)c1 (stereo not drawn)  alpha 2B receptor (Homo sapiens)         log10(EC50)           -0.68
18  Cc1cccc(C(Cc2cccnc2Cl)NC2=NCCO2)c1 (stereo not drawn)  alpha 2B receptor (Homo sapiens)         log10(EC50)           -1.22
